Test: qHTS assay for small molecule activators of the heat shock response signaling pathway - cell viability counter screen (AID 743209); further: on the % scale 0 is the no-effect control and ±100 the full control effect; nearly all actives have a fitted effect of over 50% in size
Settings: HSE-bla HeLa viability, CellTiter-Glo luminescence, 5 h; series mostly up to 62.6 µM
From the text: U.S. Tox21 Program National Center for Advancing Translational Sciences [NCATS] NIH Chemical Genomics Center [NCGC] U.S. Environmental Protection Agency [EPA] National Institutes of Environmental Health Sciences [NIEHS] National Toxicology Program [NTP] U.S. Food and Drug Administration [FDA] Tox21 Assay Overview: Various chemicals, environmental and physiological stress conditions may lead to the activation of heat shock response/ unfolded protein response (HSR/UPR). […]
Records with an inconclusive call do not appear. Active and inactive are the calls of the source. The call rests on the fitted dose curve; in most records, active means well fitted cell-killing curve with a large enough effect in the repeat runs; inconclusive means weak or mixed curves, or effect the other way; inactive means no such curve, though single readings can be large or run the other way.
Measurement Kind: outcome

Take a look at these entries with their results.
Molecule	outcome
CN(C)C(=O)NC1(c2ccccc2)CCN(CCC[C@]2(c3ccc(Cl)c(Cl)c3)CCCN(C(=O)c3ccccc3)C2)CC1	inactive
CN(C)CC[C@@H](c1ccc(Cl)cc1)c1ccccn1	inactive
Oc1ccccc1F	inactive
CC(=O)Nc1ccc(C)c(Cl)c1	inactive
CCOC(=O)NCCC[Si](OCC)(OCC)OCC	inactive
CN1CCN(c2c(F)cc3c(=O)c(C(=O)O)cn4c3c2SCC4)CC1	inactive

outcome for CC(Oc1c(Cl)cccc1Cl)C1=NCCN1 (stereo not drawn) ?
inactive

Entry to check: `C1CSCCS1`
inactive

Another molecule to look at: `CN1CCN(C2=Nc3cc(F)ccc3Cc3ccccc32)CC1`
inactive

Also, NC1=NCC2c3ccccc3Cc3ccccc3N12 (stereo not drawn) please.
inactive

And then `Nc1ccc2ccccc2c1S(=O)(=O)O` , what is it?
inactive

Also, `COc1cc(Cl)ccc1Cl` please.
inactive

Note, next up: `CC(=O)Oc1cc(C(C)C)c(OCCN(C)C)cc1C`
inactive

---

Experiment: qHTS assay to identify small molecule agonists of the hypoxia (HIF-1) signaling pathway - cell viability counter screen (AID 1224844); further: on the % scale 0 is the no-effect control and ±100 the full control effect; nearly all actives have a fitted effect of over 50% in size
Details: HRE-bla ME-180 viability, CellTiter-Glo luminescence, 17 h; series mostly up to 76.8 µM
Inconclusive results are not listed. Calls of active or inactive are those of the source. Calls follow the shape of the full dose curve.
Measurement Kind: activity change, negative = cytotoxicity

Observe how each entry below is paired with its result.
Compound	activity change, negative = cytotoxicity
C=CC(C)(O)CC/C=C(\C)CCC=C(C)C (configuration not stated)	inactive
NC(Cc1ccc(F)cc1)C(=O)O (configuration not stated)	1.08% [at 6.97 µM] (inactive)
O=C(O)c1ccccc1Nc1cc(Cl)ccc1C(=O)O	5.17% [at 15.8 µM] (inactive)
C[C@@H]1CN(c2c(F)c(N)c3c(=O)c(C(=O)O)cn(C4CC4)c3c2F)C[C@H](C)N1	-0.675% [at 15.8 µM] (inactive)

Fill in: activity change, negative = cytotoxicity of `NC(=O)Cc1cccc(C(=O)c2ccccc2)c1N` is ___
inactive

Same thing, different compound: `C/C(=N\O)[C@@H](C)NCC(C)(C)CN[C@H](C)/C(C)=N/O`
inactive

Check `COc1cc(C)ccc1C(C)C` too.
inactive

Entry `CCCCCCCCCCCCCCCCOP(=O)([O-])OCC[N+](C)(C)C` please
inactive

Likewise for `Cc1cn([C@@H]2O[C@H](CO)[C@@H](O)[C@@H]2F)c(=O)[nH]c1=O` ?
inactive

// same read-out, input: `Cc1ccc(C)c(N)c1`
inactive

For CCN1CC(CCN2CCOCC2)C(c2ccccc2)(c2ccccc2)C1=O (configuration not stated) then?
inactive

Now consider CCCS(=O)c1ccc2nc(NC(=O)OC)[nH]c2c1 (configuration not stated) and answer again.
inactive
